Recorded values, source patent US20260297060A1.

test: Pharmacokinetics after 21 days dosing in the efficacy study (plasma, tumor and brain concentrations; plasma AUC at steady state), Example 14; format: in vivo, female BALB/c nude mice; settings: mouse, plasma, po; 3 mg/kg p.o. QD x 21 days; 0.25 h; mean ± SEM
measured-attribute: concentration at 0.25 h (ng/mL)
Write the answer as a number in ng/mL, unit excluded.

Would you mind telling me what concentration at 0.25 h value was observed for CCN(C)S(=O)(=O)Nc1ccc(F)c(Oc2ccc3ncn(C4CC5(CCN(C6CC7(C6)CN(c6cc8c(cc6F)c(N6CCC(=O)NC6=O)nn8C)C7)CC5)C4)c(=O)c3c2)c1C#N (stereo not shown) [Compound 141] ?
1580
